# Test system: H1437 (NSCLC) cells
# TEST DETAILS: Inhibition of H1437 cells by compounds
# Type: cell-based
# TEST SETTINGS: PY-X (DXD) set to 1
For each record, check the reported IC50 in H1437 cells, ratio to DXD: if it is below 0.3 write true, else write false.

Consider the worked cases shown below.
[[record]]
compound = "CC[C@@]1(O)C(=O)OCc2c1cc1n(c2=O)Cc2c-1nc1cc(F)c(C)c3c1c2[C@@H](NC(=O)OCCCCO)CC3"
class_name = "false"

[[record]]
compound = "CC[C@@]1(O)C(=O)OCc2c1cc1n(c2=O)Cc2c-1nc1cc(F)c(C)c3c1c2[C@@H](NC(=O)OCCO)CC3"
class_name = "false"

[[record]]
compound = "CC[C@@]1(O)C(=O)OCc2c1cc1n(c2=O)Cc2c-1nc1cc(F)c(CN)c3c1c2CCC3"
class_name = "true"


Ask: Please let me know if CC[C@@]1(O)C(=O)OCc2c1cc1n(c2=O)Cc2c-1nc1cc(F)c(O)c3c1c2CCC3 shows IC50 in H1437 cells, ratio to DXD below 0.3.
Reply: true

Ask: Please let me know if CC[C@@]1(O)C(=O)OCc2c1cc1n(c2=O)Cc2c-1nc1ccc(CO)c3c1c2CCC3 [PY-37A] shows IC50 in H1437 cells, ratio to DXD below 0.3.
Reply: true

Ask: Please let me know if CC[C@@]1(O)C(=O)OCc2c1cc1n(c2=O)Cc2c-1nc1cc(Cl)c(CN)c3c1c2CCC3 shows IC50 in H1437 cells, ratio to DXD below 0.3.
Reply: false

Ask: Please let me know if CC[C@@]1(O)C(=O)OCc2c1cc1n(c2=O)Cc2c-1nc1cc(F)c(CO)c3c1c2CCC3 shows IC50 in H1437 cells, ratio to DXD below 0.3.
Reply: true

Ask: Please let me know if CC[C@@]1(O)C(=O)OCc2c1cc1n(c2=O)Cc2c-1nc1cc(Cl)c(CO)c3c1c2CCC3 shows IC50 in H1437 cells, ratio to DXD below 0.3.
Reply: false

* * *

# Test system: H1650 (NSCLC) cells
# TEST DETAILS: Inhibition of H1650 cells by compounds
# Format: cell-based
# TEST SETTINGS: PY-X (DXD) set to 1
QUANTITY NAME: IC50 in H1650 cells, ratio to DXD
Please respond with just the number, no unit label.

Use these answered entries as a reference point.
[[record]]
molecular_string = "CC[C@@]1(O)C(=O)OCc2c1cc1n(c2=O)Cc2c-1nc1cc(Cl)c(CN)c3c1c2CCC3"
measurement_target = "H1650 (NSCLC) cells"
quantity_name = "IC50 in H1650 cells, ratio to DXD"
numeric_readout = 0.8758

[[record]]
molecular_string = "CC[C@@]1(O)C(=O)OCc2c1cc1n(c2=O)Cc2c-1nc1cc(F)c(C)c3c1c2[C@@H](NC(=O)OCCCCO)CC3"
measurement_target = "H1650 (NSCLC) cells"
quantity_name = "IC50 in H1650 cells, ratio to DXD"
numeric_readout = 0.7384

[[record]]
molecular_string = "CC[C@@]1(O)C(=O)OCc2c1cc1n(c2=O)Cc2c-1nc1cc(F)c(O)c3c1c2CCC3"
measurement_target = "H1650 (NSCLC) cells"
quantity_name = "IC50 in H1650 cells, ratio to DXD"
numeric_readout = 0.0415


Okay, now this compound:
Given item CC[C@@]1(O)C(=O)OCc2c1cc1n(c2=O)Cc2c-1nc1cc(F)c(CN)c3c1c2CCC3 , the value recorded as its IC50 in H1650 cells, ratio to DXD is 0.1421

FYI, the data here is from patent US20260199500A1.
